biological target: HiBiT-BRM (Homo sapiens); construct: expressed in transfected cells; test: HiBiT-BRM cell-based degradation assay (Nano-Glo HiBiT Lytic Detection); conditions: HeLa cells expressing HiBiT-BRM, 24 h; read-out: BRM HiBit Degradation IC50
Sequence (P51531 whole entry): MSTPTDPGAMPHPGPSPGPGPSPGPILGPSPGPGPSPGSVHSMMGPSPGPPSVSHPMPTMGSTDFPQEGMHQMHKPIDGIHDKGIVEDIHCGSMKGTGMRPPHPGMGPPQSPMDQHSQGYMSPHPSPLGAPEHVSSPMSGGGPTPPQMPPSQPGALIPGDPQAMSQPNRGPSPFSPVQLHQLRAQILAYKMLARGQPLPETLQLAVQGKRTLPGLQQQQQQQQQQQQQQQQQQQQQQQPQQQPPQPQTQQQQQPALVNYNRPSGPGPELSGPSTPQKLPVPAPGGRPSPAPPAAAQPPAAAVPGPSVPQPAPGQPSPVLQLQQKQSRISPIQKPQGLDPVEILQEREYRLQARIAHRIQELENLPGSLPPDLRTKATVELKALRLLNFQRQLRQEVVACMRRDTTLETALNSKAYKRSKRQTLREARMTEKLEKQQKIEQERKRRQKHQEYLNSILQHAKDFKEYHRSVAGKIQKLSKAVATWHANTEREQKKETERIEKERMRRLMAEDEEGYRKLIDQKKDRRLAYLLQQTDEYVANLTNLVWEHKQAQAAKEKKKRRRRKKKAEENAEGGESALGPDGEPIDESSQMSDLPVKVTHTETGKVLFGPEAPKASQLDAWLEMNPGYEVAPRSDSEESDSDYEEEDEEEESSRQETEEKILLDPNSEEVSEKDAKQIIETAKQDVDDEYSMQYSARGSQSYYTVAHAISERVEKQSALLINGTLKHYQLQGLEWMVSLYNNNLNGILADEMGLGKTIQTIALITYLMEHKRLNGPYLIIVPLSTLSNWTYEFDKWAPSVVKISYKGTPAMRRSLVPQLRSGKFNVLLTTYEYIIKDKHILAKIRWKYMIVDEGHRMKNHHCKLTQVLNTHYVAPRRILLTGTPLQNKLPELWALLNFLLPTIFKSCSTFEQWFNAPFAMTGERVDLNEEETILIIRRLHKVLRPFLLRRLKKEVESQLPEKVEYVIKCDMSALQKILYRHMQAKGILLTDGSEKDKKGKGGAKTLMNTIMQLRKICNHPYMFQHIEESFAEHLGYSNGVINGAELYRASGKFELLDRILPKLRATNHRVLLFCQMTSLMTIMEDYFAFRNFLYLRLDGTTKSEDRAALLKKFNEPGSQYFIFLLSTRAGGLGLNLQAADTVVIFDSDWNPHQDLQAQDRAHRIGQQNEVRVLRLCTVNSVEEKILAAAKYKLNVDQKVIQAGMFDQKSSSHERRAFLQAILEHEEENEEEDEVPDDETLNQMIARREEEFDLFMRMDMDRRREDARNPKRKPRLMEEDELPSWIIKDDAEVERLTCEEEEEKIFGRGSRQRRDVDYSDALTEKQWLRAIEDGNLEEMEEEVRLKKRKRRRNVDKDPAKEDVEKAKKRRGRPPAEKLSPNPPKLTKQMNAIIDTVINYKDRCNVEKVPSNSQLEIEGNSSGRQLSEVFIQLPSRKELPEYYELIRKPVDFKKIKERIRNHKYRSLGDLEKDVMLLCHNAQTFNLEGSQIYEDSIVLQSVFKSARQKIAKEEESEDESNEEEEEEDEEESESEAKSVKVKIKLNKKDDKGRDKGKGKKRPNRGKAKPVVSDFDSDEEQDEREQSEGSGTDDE
Measured property: DC50

Compound | Measured property | Observed measurement
Cc1ncsc1-c1ccc(CNC(=O)[C@@H]2C[C@@H](O)CN2C(=O)[C@@H](NC(=O)CCCCC(=O)NCc2ccc(CCOc3cc(-c4ccccc4O)nnc3N)cc2)C(C)(C)C)cc1 [Compound 27] | DC50 | > 1000 nM
Cc1ncsc1-c1ccc(CNC(=O)[C@@H]2C[C@@H](O)CN2C(=O)[C@@H](NC(=O)CCCCCCCCCNC(=O)c2ccc(CCOc3cc(-c4ccccc4O)nnc3N)cc2)C(C)C)cc1 [Compound 170] | DC50 | > 1000 nM
Cc1ncsc1-c1ccc(CNC(=O)[C@@H]2C[C@@H](O)CN2C(=O)[C@@H](NC(=O)CCCCCCCCCCCCCCCC(=O)NCc2ccc(CCN(C)c3cc(-c4ccccc4O)nnc3N)cc2)C(C)(C)C)cc1 [Compound 133] | DC50 | > 100 nM
Cc1ncsc1-c1ccc(CNC(=O)[C@@H]2C[C@@H](O)CN2C(=O)[C@@H](NC(=O)COCCOCCOCCOCC(=O)NCc2ccc(CCOc3cc(-c4ccccc4O)nnc3N)cc2)C(C)(C)C)cc1 [Compound 39] | DC50 | > 1000 nM
Cc1ncsc1-c1ccc(CNC(=O)[C@@H]2C[C@@H](O)CN2C(=O)[C@@H](NC(=O)CCN2CC3=C(C2)CN(C(=O)c2ccc(CCOc4cc(-c5ccccc5O)nnc4N)cc2)C3)C(C)(C)C)cc1 [Compound 219] | DC50 | > 1000 nM
Nc1nnc(-c2ccccc2O)cc1OCCc1ccc(CNCCCC2CN(c3ccc4c(c3)C(=O)N(C3CCC(=O)NC3=O)C4=O)C2)cc1 (stereo not drawn) [Compound 123] | DC50 | > 10 nM
Nc1nnc(-c2ccccc2O)cc1OCCc1ccc(CNC(=O)CCCCNc2cccc3c2C(=O)N(C2CCC(=O)NC2=O)C3=O)cc1 (stereo not drawn) [Compound 4] | DC50 | > 100 nM
Cc1ncsc1-c1ccc(CNC(=O)[C@@H]2C[C@@H](O)CN2C(=O)[C@@H](NC(=O)CCCCN2CCN(CCC(=O)NCc3ccc(CCOc4cc(-c5ccccc5O)nnc4N)cc3)CC2)C(C)(C)C)cc1 [Compound 260] | DC50 | > 1000 nM
Cc1ncsc1-c1ccc([C@H](C)NC(=O)[C@@H]2C[C@@H](O)CN2C(=O)[C@@H](NC(=O)CCCCCCCCCC(=O)NCc2ccc(CCOc3cc(-c4ccccc4O)nnc3N)cc2)C(C)(C)C)cc1 [Compound 198] | DC50 | > 10 nM
Cc1ncsc1-c1ccc([C@H](C)NC(=O)[C@@H]2C[C@@H](O)CN2C(=O)[C@@H](NC(=O)CCCCCCCCCCCCCC(=O)N(C)Cc2ccc(CCOc3cc(-c4ccccc4O)nnc3N)cc2)C(C)(C)C)cc1 [Compound 197] | DC50 | > 10 nM
Nc1nnc(-c2ccccc2O)cc1OCCc1ccc(CNC(=O)CCCCOc2cccc3c2C(=O)N(C2CCC(=O)NC2=O)C3)cc1 (stereo not drawn) [Compound 152] | DC50 | > 100 nM
Cc1ncsc1-c1ccc(CNC(=O)[C@@H]2C[C@@H](O)CN2C(=O)[C@@H](NC(=O)CCN2CC(C(=O)NCc3ccc(CCOc4cc(-c5ccccc5O)nnc4N)cc3)C2)C(C)(C)C)cc1 [Compound 182] | DC50 | > 1000 nM
Cc1ncsc1-c1ccc(CNC(=O)[C@@H]2C[C@@H](O)CN2C(=O)[C@@H](NC(=O)CCN2C[C@@H]3CN(C(=O)c4ccc(CCOc5cc(-c6ccccc6O)nnc5N)cc4)C[C@@H]3C2)C(C)(C)C)cc1 [Compound 203] | DC50 | > 1000 nM
Nc1nnc(-c2ccccc2O)cc1OCCc1ccc(CNCCCCCOc2ccc3c(c2)C(=O)N(C2CCC(=O)NC2=O)C3=O)cc1 (stereo not drawn) [Compound 116, diformic acid] | DC50 | > 1000 nM
CN(CCCCCOc1cccc2c1C(=O)N(C1CCC(=O)NC1=O)C2=O)Cc1ccc(CCOc2cc(-c3ccccc3O)nnc2N)cc1 (stereo not drawn) [Compound 113] | DC50 | > 10 nM
